Ref: patent EP0590998A1

test: Solubility of the 10% compounds in silicone base and squalane at room temperature; format: physicochemical; design: key: The compounds which can completely be dissolved in the solvents are indicated as ○; settings: 10% compound in SILICONE KF56 (10cs), room temperature (25°C)
observable: SOLUBILITY SILICONE KF56(10%)

Cc1cccc(C=CC(=O)CC(=O)C(C)(C)C)c1 :: ○
COc1ccc(C=CC(=O)CC(=O)C(C)(C)C)cc1 :: ○
CC(C)(C)C(=O)CC(=O)C=Cc1ccccc1 :: ○
CCCCC(CC)COc1ccc(C=CC(=O)CC(=O)C(C)(C)C)cc1 (stereo not drawn) :: ○

Consider the record given below.
Please list SOLUBILITY SILICONE KF56(10%) recorded for the molecule CCc1ccc(C=CC(=O)CC(=O)C(C)(C)C)cc1 ○
